Reference source for all entries: patent EP1077967B1

Target: rat hepatic microsomal PTPases
Test: Inhibition of tri-phosphorylated insulin receptor dodecaphosphopeptide dephosphorylation by rat hepatic PTPases (malachite green)
Details: rat liver microsomal fraction; % Change from Control
Property measured: IC50 (µM)

compound=O=C(O)[C@@H](Cc1ccccc1)Oc1ccc(-c2ccc(-c3c(Cc4ccc(O)c(O)c4)sc4ccccc34)cc2)cc1 assay_value=20.6
compound="CCCCc1sc2ccccc2c1-c1ccc(-c2ccc(OC(C(=O)O)c3ccccc3)cc2)cc1 (stereo not drawn)" assay_value=35.5
compound=O=C(O)[C@H](Oc1ccc(-c2ccc(-c3c(Cc4ccccc4)oc4ccccc34)cc2)cc1)c1ccccc1 assay_value=24.2

a = COc1ccc(-c2cc(-c3ccc(-c4c(Cc5ccccc5)sc5ccccc45)cc3)ccc2O[C@H](Cc2ccccc2)C(=O)O)cc1
b = COc1ccc(Cc2sc3ccccc3c2-c2ccc(-c3ccc(O[C@H](Cc4ccccc4)C(=O)O)cc3)cc2)cc1
c = COc1ccc(-c2cc(-c3ccc(-c4c(Cc5ccccc5)sc5ccccc45)cc3)cc(-c3ccc(OC)cc3)c2OCC(=O)O)cc1
Q. List by increasing IC50. Provide the ranking by listing each label in its place in the requested order.
A. a, c, b
